Organism: Rattus norvegicus
Assay explanation: DrugMatrix - Regimen: Daily Repeat
Format: toxicity, organism-based, Sprague-Dawley
Parameters: regimen Daily Repeat, gender Male, age 6-8 weeks
Details: in vivo, sc, 0 mg/kg, 120 h, tissue Plasma, route subcutaneous, dose level Control, time 5 day, […]
CREATININE by entry:
Answer with the number, then the unit.

>>> recorded_result("CCC(=O)O[C@]1(C(=O)CCl)[C@@H](C)C[C@H]2[C@@H]3CCC4=CC(=O)C=C[C@]4(C)[C@@]3(F)[C@@H](O)C[C@@]21C [CLOBETASOL PROPIONATE]")
"0.21 mg/dL"
>>> recorded_result("CC(C)(C)CC(C)(C)c1ccc(OCCOCC[N+](C)(C)Cc2ccccc2)cc1.[Cl-] [BENZETHONIUM CHLORIDE]")
"0.2 mg/dL"
>>> recorded_result("O=C(Nc1ccc(Br)cc1)c1cc(Br)cc(Br)c1O [TRIBROMSALAN]")
"0.21 mg/dL"

Prompt line: Any idea what its CREATININE is? The molecule is Oc1c(Cl)cc(Cl)c(Cl)c1Cc1c(O)c(Cl)cc(Cl)c1Cl [HEXACHLOROPHENE]
Response line: 0.2 mg/dL

Prompt line: And for CCN(CC)CCOCCC1=CCC2CC1C2(C)C (stereo not given) [MYRTECAINE] ?
Response line: 0.18 mg/dL

====

Organism: Rattus norvegicus
Assay explanation: DrugMatrix - Regimen: Daily Repeat
Format: toxicity, organism-based, Sprague-Dawley
Design: regimen Daily Repeat, gender Male, age 6-8 weeks
Details: in vivo, po, 1500 mg/kg, 120 h, tissue Plasma, route oral GAVAGE, dose level High, time 5 day, vehicle .5 % CMC
Endpoint label: CREATINE PHOSPHOKINASE (u/L)
Note: unit u/L is implicit; provide only the numeric part.

>>> recorded_result("CN(C)[C@@H]1C(O)=C(C(N)=O)C(=O)[C@@]2(O)C(O)=C3C(=O)c4c(O)ccc(Cl)c4[C@@](C)(O)[C@H]3C[C@@H]12")
301.67

Prompt line: Any idea what its CREATINE PHOSPHOKINASE is? The compound is COC(=O)Nc1nc2ccc([S+]([O-])c3ccccc3)cc2[nH]1 (stereo not given)
Response line: 228

Prompt line: And for "CC(C)Oc1ccc2c(=O)c(-c3ccccc3)coc2c1" ?
Response line: 231

Prompt line: And for "O=c1cnn([C@@H]2O[C@H](CO)[C@@H](O)[C@H]2O)c(=O)[nH]1" ?
Response line: 888.33

Prompt line: And for "CC(C)=CCC/C(C)=C/CO" ?
Response line: 441

====

LACTATE DEHYDROGENASE by entry:
Organism: Rattus norvegicus
Assay explanation: DrugMatrix - Regimen: Daily Repeat
Assay type: toxicity, organism-based, Sprague-Dawley
Design: regimen Daily Repeat, gender Male, age 6-8 weeks
Details: in vivo, po, 1500 mg/kg, 72 h, tissue Plasma, route oral GAVAGE, dose level High, time 3 day, vehicle .5 % CMC
Note: unit u/L is implicit; provide only the numeric part.

Solved entries (count: 3):
>>> recorded_result("COC(=O)Nc1nc2ccc([S+]([O-])c3ccccc3)cc2[nH]1 (stereo not given)")
90
>>> recorded_result("CN(C)[C@@H]1C(O)=C(C(N)=O)C(=O)[C@@]2(O)C(O)=C3C(=O)c4c(O)ccc(Cl)c4[C@@](C)(O)[C@H]3C[C@@H]12")
129.67
>>> recorded_result("CC(C)=CCC/C(C)=C/CO")
193.67

Prompt line: Any idea what its LACTATE DEHYDROGENASE is? The molecule is "O=c1cnn([C@@H]2O[C@H](CO)[C@@H](O)[C@H]2O)c(=O)[nH]1"
Response line: 167.67

Prompt line: And for "CC(C)Oc1ccc2c(=O)c(-c3ccccc3)coc2c1" ?
Response line: 181

====

Organism: Rattus norvegicus
Assay explanation: DrugMatrix - Regimen: Daily Repeat
Assay type: toxicity, organism-based, Sprague-Dawley
Design: regimen Daily Repeat, gender Male, age 6-8 weeks
Details: in vivo, po, […], 72 h, tissue Blood, route oral GAVAGE, dose 7.5 mg/Kg, dose level High, time 3 day, vehicle 100 % SALINE
Endpoint label: ABSOLUTE EOSINOPHIL (cells/µL)
Note: unit cells/µL is implicit; provide only the numeric part.

Prompt line: Any idea what its ABSOLUTE EOSINOPHIL is? The molecule is "Nc1ncnc2c1ncn2[C@@H]1O[C@H](CO)[C@@H](O)[C@H]1F"
Response line: 220

====

ASPARTATE AMINOTRANSFERASE by entry:
Species on record: Rattus norvegicus
Assay explanation: DrugMatrix - Regimen: Daily Repeat
Format: toxicity, organism-based, Sprague-Dawley
Parameters: regimen Daily Repeat, gender Male, age 6-8 weeks
Details: in vivo, po, 1500 mg/kg, 120 h, tissue Plasma, route oral GAVAGE, dose level High, time 5 day, vehicle .5 % CMC
Note: unit u/L is implicit; provide only the numeric part.

Solved entries (count: 4):
>>> recorded_result("CN(C)[C@@H]1C(O)=C(C(N)=O)C(=O)[C@@]2(O)C(O)=C3C(=O)c4c(O)ccc(Cl)c4[C@@](C)(O)[C@H]3C[C@@H]12 [CHLORTETRACYCLINE]")
86.33
>>> recorded_result("O=c1cnn([C@@H]2O[C@H](CO)[C@@H](O)[C@H]2O)c(=O)[nH]1 [6-AZAURIDINE]")
98.33
>>> recorded_result("CC(C)=CCC/C(C)=C/CO [GERANIOL]")
95.67
>>> recorded_result("COC(=O)Nc1nc2ccc([S+]([O-])c3ccccc3)cc2[nH]1 (stereo not given) [OXFENDAZOLE]")
79.67

Prompt line: Any idea what its ASPARTATE AMINOTRANSFERASE is? The compound is CC(C)Oc1ccc2c(=O)c(-c3ccccc3)coc2c1 [IPRIFLAVONE]
Response line: 72.33

====

CREATININE by entry:
Species on record: Rattus norvegicus
Assay explanation: DrugMatrix - Regimen: Daily Repeat
Type: toxicity, organism-based, Sprague-Dawley
Parameters: regimen Daily Repeat, gender Male, age 6-8 weeks
Details: in vivo, po, 1500 mg/kg, 120 h, tissue Plasma, route oral GAVAGE, dose level High, time 5 day, vehicle .5 % CMC
Note: unit mg/dL is implicit; provide only the numeric part.

Prompt line: Any idea what its CREATININE is? The compound is COC(=O)Nc1nc2ccc([S+]([O-])c3ccccc3)cc2[nH]1 (stereo not given)
Response line: 0.16

Prompt line: And for "CN(C)[C@@H]1C(O)=C(C(N)=O)C(=O)[C@@]2(O)C(O)=C3C(=O)c4c(O)ccc(Cl)c4[C@@](C)(O)[C@H]3C[C@@H]12" ?
Response line: 0.19

Prompt line: And for "O=c1cnn([C@@H]2O[C@H](CO)[C@@H](O)[C@H]2O)c(=O)[nH]1" ?
Response line: 0.12

Prompt line: And for "CC(C)Oc1ccc2c(=O)c(-c3ccccc3)coc2c1" ?
Response line: 0.16

Prompt line: And for "CC(C)=CCC/C(C)=C/CO" ?
Response line: 0.16

====

Species: Rattus norvegicus
Assay explanation: DrugMatrix - Regimen: Daily Repeat
Assay type: toxicity, organism-based, Sprague-Dawley
Set-up: regimen Daily Repeat, gender Male, age 6-8 weeks
Details: in vivo, po, 0 mg/kg, 120 h, tissue Plasma, route oral GAVAGE, dose level Control, time 5 day, vehicle .5 % CMC
Threshold rule: CREATINE PHOSPHOKINASE greater than or equal to 200 u/L is satisfied; below that, not satisfied.

>>> cat("COc1cc2nc(N3CCN(C(=O)c4ccco4)CC3)nc(N)c2cc1OC")
"satisfied"
>>> cat("O=C1Nc2ccc(Cl)cc2C(c2ccccc2Cl)=NC1O (stereo not drawn)")
"satisfied"
>>> cat("NCCCC(O)(P(=O)(O)O)P(=O)(O)O")
"not satisfied"
>>> cat("Clc1ccccc1CN1CCc2sccc2C1")
"not satisfied"
>>> cat("CC(C(=O)O)c1ccc2oc(-c3ccc(Cl)cc3)nc2c1 (stereo not drawn)")
"not satisfied"
>>> cat("CCN(CC)CCOc1ccc(/C(=C(/Cl)c2ccccc2)c2ccccc2)cc1")
"satisfied"
>>> cat("Cn1c(=O)c2c(ncn2CC(O)CO)n(C)c1=O (stereo not drawn)")
"satisfied"

Kindly review the next compound as well.
Prompt line: Reported CREATINE PHOSPHOKINASE at or above 200 u/L? "CN(C)[C@@H]1C(O)=C(C(N)=O)C(=O)[C@@]2(O)C(O)=C3C(=O)c4c(O)ccc(Cl)c4[C@@](C)(O)[C@H]3C[C@@H]12"
Response line: satisfied

====

Species on record: Rattus norvegicus
Assay explanation: DrugMatrix - Regimen: Daily Repeat
Format: toxicity, organism-based, Sprague-Dawley
Parameters: regimen Daily Repeat, gender Male, age 6-8 weeks
Details: in vivo, sc, 0 mg/kg, 72 h, tissue Blood, route subcutaneous, dose level Control, time 3 day, […]
Endpoint label: NEUTROPHIL (%)
Note: unit % is implicit; provide only the numeric part.

Solved entries (count: 4):
>>> recorded_result("CCN(CC)CCOCCC1=CCC2CC1C2(C)C (stereo not given)")
8.33
>>> recorded_result("CC(C)(C)CC(C)(C)c1ccc(OCCOCC[N+](C)(C)Cc2ccccc2)cc1.[Cl-] [BENZETHONIUM CHLORIDE]")
9.33
>>> recorded_result("O=C(Nc1ccc(Br)cc1)c1cc(Br)cc(Br)c1O")
16.5
>>> recorded_result("Oc1c(Cl)cc(Cl)c(Cl)c1Cc1c(O)c(Cl)cc(Cl)c1Cl")
9.33

Prompt line: Any idea what its NEUTROPHIL is? The molecule is CCC(=O)O[C@]1(C(=O)CCl)[C@@H](C)C[C@H]2[C@@H]3CCC4=CC(=O)C=C[C@]4(C)[C@@]3(F)[C@@H](O)C[C@@]21C [CLOBETASOL PROPIONATE]
Response line: 16.5
